Tmax values by entry
experiment: Tmax in Wistar rat at 5 mg/kg, po administered as triple or quadruple dosing measured after 1 to 24 hrs by reverse-phase HPLC method; format: ADME, organism-based; conditions: in vivo
experimental_readout: Tmax (h)

- O=C(Nc1ccc(Cl)cc1C(=O)[O-])c1cccc(-c2cccc3cnccc23)c1.[Na+]: 2
- O=C(NCc1cccc(-c2ccoc2)c1)C(=O)Nc1ccc(Cl)cc1C(=O)O: 2
- O=C(Cc1cccc(-c2ccoc2)c1)Nc1ccc(Cl)cc1C(=O)O: 2
- O=C(Nc1ccc(Cl)cc1C(=O)[O-])c1cccc(-c2cncc3ccccc23)c1.[Na+]: 6
- O=C(Nc1ccc(Cl)cc1C(=O)O)c1cccc(C2CCCCC2)c1: 1

* * *

test: Tmax in Wistar rat at 5 mg/kg, po administered as triple or quadruple dosing measured after 1 to 24 hrs by reverse-phase HPLC method; assay type: ADME, organism-based; conditions: in vivo
Tmax values by entry
experimental_readout: Tmax (h)

- O=C(Nc1ccc(Cl)cc1C(=O)O)c1ccc(C2CCCCC2)cc1: 1
- O=C(Nc1ccc(Cl)cc1C(=O)O)c1ccc(C23CC4CC(CC(C4)C2)C3)cc1: 2
- O=C(Nc1cccc(-c2ccoc2)c1)C(=O)Nc1ccc(Cl)cc1C(=O)O: 2
- O=C(Nc1ccc(Cl)cc1C(=O)[O-])c1cccc(-c2cccc3cccnc23)c1.[Na+]: 1
- O=C(Nc1ccc(Cl)cc1C(=O)O)c1cccc(C2=CCCCC2)c1: 1
- O=C(Nc1ccc(Cl)cc1C(=O)O)c1cccc(-c2ccoc2)c1: 2
- CC(C)(C)c1ccc(C(=O)Nc2ccc(Cl)cc2C(=O)O)cc1: 1
- O=C(Nc1ccc(Cl)cc1C(=O)O)c1ccc(-c2ccccc2)cc1: 2
- O=C(Nc1ccc(Cl)cc1C(=O)O)c1cccc(-c2cccc3ccccc23)c1: 2
- O=C(Nc1ccc(Cl)cc1C(=O)O)c1cccc(-c2ccccc2)c1: 2
- O=C(Nc1ccc(Cl)cc1C(=O)O)c1ccc(Oc2ccccc2)cc1: 6
- O=C(CSCC(=O)Nc1ccc(Cl)cc1C(=O)O)Nc1cccc(-c2ccoc2)c1: 1
- O=C(COc1cccc(-c2ccoc2)c1)Nc1ccc(Cl)cc1C(=O)O: 2
- O=C(Nc1ccc(Cl)cc1C(=O)[O-])c1cccc(-c2cnc3ccccc3c2)c1.[Na+]: 2
- O=C(Nc1ccc(Cl)cc1C(=O)O)c1ccc(-c2cccs2)cc1: 2
- O=C(Nc1ccc(Cl)cc1C(=O)[O-])c1cccc(-c2ccncc2)c1.[Na+]: 2
- O=C(Nc1ccc(Cl)cc1C(=O)O)c1ccc(C2CCOCC2)cc1: 1
- CC(C)Oc1ccc(C(=O)Nc2ccc(Cl)cc2C(=O)O)cc1: 1
- O=C(COCC(=O)Nc1ccc(Cl)cc1C(=O)O)NCc1cccc(-c2ccoc2)c1: 2
- O=C(Nc1ccc(Cl)cc1C(=O)O)c1cccc(C23CC4CC(CC(C4)C2)C3)c1: 2
- O=C(Nc1ccc(Cl)cc1C(=O)O)c1ccc(C(=O)c2ccccc2)cc1: 1

* * *

biological target: UniProt P05121; experiment: Inhibition of human PAI-1 assessed as remaining enzyme activity by measuring p-nitroaniline release pre-incubated for 15 mins before 9.8 nM human tPA substrate addition for 15 mins using 24.5 nM enzyme and chromogenic substrate S-2288 by spectrophotometry
Sequence (P05121 whole entry): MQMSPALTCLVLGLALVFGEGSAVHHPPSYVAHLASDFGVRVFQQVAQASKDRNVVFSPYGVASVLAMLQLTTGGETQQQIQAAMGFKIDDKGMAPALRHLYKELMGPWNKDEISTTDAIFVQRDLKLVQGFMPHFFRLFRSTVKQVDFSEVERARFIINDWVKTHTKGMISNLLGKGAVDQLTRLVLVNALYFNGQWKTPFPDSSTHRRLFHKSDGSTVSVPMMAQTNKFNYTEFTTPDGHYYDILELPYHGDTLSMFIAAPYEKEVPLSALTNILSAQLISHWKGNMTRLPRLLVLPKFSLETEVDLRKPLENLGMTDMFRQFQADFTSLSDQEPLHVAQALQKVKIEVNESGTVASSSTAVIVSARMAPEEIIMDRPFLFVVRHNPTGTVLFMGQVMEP
pIC50: −log10 of the molar value.
experimental_readout: pIC50

* O=C(COCC(=O)N1CCN(C(c2ccccc2)c2ccccc2)CC1)Nc1ccc(Cl)cc1C(=O)O | 5.10
